Values were extracted from the Immune Epitope Database (IEDB).

target: HLA-B*46:01; test: IEDB peptide-MHC binding, purified MHC/direct/fluorescence; filed as Kd, often an IC50 or EC50 that approximates it; bounds were set here for any values at or beyond the usual limits of such assays; settings: source organism: Giardia lamblia ATCC 50803
Property Measured: Kd

Lookup: Kd lookup needed for `IVKYKQYLK` , thanks.
Found: ≥ 20 µM

###

biological target: HLA-A*03:01; assay: IEDB peptide-MHC binding, purified MHC/competitive/fluorescence; filed as Kd, often an IC50 or EC50 that approximates it; bounds were set here for any values at or beyond the usual limits of such assays; settings: source organism: Bacillus anthracis str. A0488
Property Measured: Kd (nM)
Report as a plain number; the unit nM is understood.

Lookup: HLA-A*03:01 / Kd / `MVFVELPSK` : value?
Found: 101

###

biological target: HLA-B*15:17; test: IEDB peptide-MHC binding, purified MHC/direct/fluorescence; filed as Kd, often an IC50 or EC50 that approximates it; bounds were set here for any values at or beyond the usual limits of such assays; conditions: source organism: Vibrio parahaemolyticus
pKd: −log10 of the molar value.
Property Measured: pKd

Lookup: pKd lookup needed for `VFMDNAFKK` , thanks.
Found: ≤ 4.70

###

target: HLA-A*11:01; test: IEDB peptide-MHC binding, purified MHC/direct/fluorescence; filed as Kd, often an IC50 or EC50 that approximates it; bounds were set here for any values at or beyond the usual limits of such assays; details: source organism: Homo sapiens
Property Measured: pKd
Here pKd is given on a logarithmic scale as minus log10 of the concentration in mol/L.

Lookup: pKd lookup needed for `IADMGHLKY` , thanks.
Found: 5.55

###

biological target: HLA-B*35:01; experiment: IEDB peptide-MHC binding, purified MHC/direct/fluorescence; filed as Kd, often an IC50 or EC50 that approximates it; bounds were set here for any values at or beyond the usual limits of such assays; details: source organism: Brucella melitensis
Property Measured: Kd (nM)
Report as a plain number; the unit nM is understood.

Lookup: Kd lookup needed for `GYSFSIPGY` , thanks.
Found: 468

###

target: HLA-B*40:01; assay: IEDB peptide-MHC binding, purified MHC/direct/fluorescence; filed as Kd, often an IC50 or EC50 that approximates it; bounds were set here for any values at or beyond the usual limits of such assays; conditions: source organism: Salmonella enterica
Property Measured: Kd (nM)
Report as a plain number; the unit nM is understood.

Lookup: Kd lookup needed for `NERWFREVI` , thanks.
Found: 653

###

biological target: HLA-A*03:01; experiment: IEDB peptide-MHC binding, purified MHC/direct/fluorescence; filed as Kd, often an IC50 or EC50 that approximates it; bounds were set here for any values at or beyond the usual limits of such assays; details: source organism: Toxoplasma gondii RH
Property Measured: Kd

Lookup: Kd lookup needed for `LTMNLVSDI` , thanks.
Found: ≥ 20 µM

###

target: HLA-A*31:01; assay: IEDB peptide-MHC binding, purified MHC/direct/fluorescence; filed as Kd, often an IC50 or EC50 that approximates it; bounds were set here for any values at or beyond the usual limits of such assays; details: source organism: Influenza A virus (A/mallard/NZ/1/97(H5N2))
pKd: −log10 of the molar value.
Property Measured: pKd

Lookup: pKd lookup needed for `IAGFIEGGW` , thanks.
Found: ≤ 4.70
